- Type: physicochemical
- CONDITIONS_USED: 37 °C, medium-chain mono-, di-, triglyceride, mean ± SD, triplicate
ENDPOINT: Thermodynamic solubility in Capmul MCM EP (mg/g)

>>> print(df.to_string())
                                   molecule  observed
0  CCCCN(CCCC)CCC(O)c1cc2c(Cl)cc(Cl)cc2c2cc(C(F)(F)F)ccc12 (stereo not drawn)      52.6
1  CC(C)(Oc1ccc(C(=O)c2ccc(Cl)cc2)cc1)C(=O)O      14.5
2  OCCN(CCO)c1nc(N2CCCCC2)c2nc(N(CCO)CCO)nc(N3CCCCC3)c2n1      12.3

1. Cc1cc(-n2c(=O)[nH]c(=O)n(C)c2=O)ccc1Oc1ccc(SC(F)(F)F)cc1
2. CC(C)(Oc1ccc(CCNC(=O)c2ccc(Cl)cc2)cc1)C(=O)O [bezafibrate]
Qu. Of the pair 1 and 2 , name the member with the lesser recorded Thermodynamic solubility in Capmul MCM EP. Indicate your choice by writing its label.
Ans. 2

----------
- Format: physicochemical
- CONDITIONS_USED: 37 °C, medium-chain mono-, di-, triglyceride, mean ± SD, triplicate
ENDPOINT: Thermodynamic solubility in Capmul MCM EP (mg/g)

Known results for compounds:
>>> print(df.to_string())
                                   compound  value_unit  observed
0  COc1ccc2c(c1OC)C(=O)O[C@@H]2[C@H]1c2c(cc3c(c2OC)OCO3)CCN1C        mg/g      7.23
1  COC1=CC(=O)C[C@@H](C)[C@]12Oc1c(Cl)c(OC)cc(OC)c1C2=O        mg/g      5.56

1. COc1ccc2c(c1)c(CC(=O)O)c(C)n2C(=O)c1ccc(Cl)cc1
2. COC(=O)Nc1nc2ccc(Sc3ccccc3)cc2[nH]1
3. O=C(O)c1cc(-c2ccc(F)cc2F)ccc1O
4. O=C(O)c1cc(/N=N/c2ccc(S(=O)(=O)Nc3ccccn3)cc2)ccc1O
5. CCOC(=O)C1=C(C)NC(C)=C(C(=O)OC)C1c1cccc(Cl)c1Cl (centres unmarked)
Qu. hey, can you rank those compounds up there by Thermodynamic solubility in Capmul MCM EP? biggest number first please In plain terms: list the labels in the order you were asked to.
Ans. 5, 3, 1, 4, 2
